experimental target: Calcium-activated potassium channel subunit alpha-1 (Homo sapiens) + Leucine-rich repeat-containing protein 26 (Homo sapiens) (UniProt Q12791+Q2I0M4)
Sequence (Q2I0M4 whole entry, looked up, one chain of several): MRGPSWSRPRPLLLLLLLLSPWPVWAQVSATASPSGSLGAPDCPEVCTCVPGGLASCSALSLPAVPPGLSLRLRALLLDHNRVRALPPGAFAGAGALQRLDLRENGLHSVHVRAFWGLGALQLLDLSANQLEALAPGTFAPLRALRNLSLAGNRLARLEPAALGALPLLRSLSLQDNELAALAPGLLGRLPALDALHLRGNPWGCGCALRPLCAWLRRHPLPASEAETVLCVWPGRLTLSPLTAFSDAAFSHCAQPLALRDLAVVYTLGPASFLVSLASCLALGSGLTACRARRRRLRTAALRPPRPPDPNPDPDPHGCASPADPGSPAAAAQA
procedure summary: modulators of BK channel variants, profiling panel, selectivity assay, cell-based, U2OS BacMam, thallium flux, beta subunits (AID 1259406);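 also: initial slope of Thallos dye fluorescence rise after thallium is added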
measurement context: F380Y/Slo1WT/gamma1, at 30 µM
Active and inactive are the calls of the source.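 The calls were made as follows: active = thallium flux through the channel raised or lowered by more than 3 SD from vehicle-only wells, actives on both sides; inactive = the rest.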
Field 'call' accepts active, inactive

Write down the call the test reported for this molecule. Item: CCOC(=O)NN=C(C)C(C)=NNC(=O)OCC
inactive

Write down the call the test reported for this molecule. Item: Cc1nc2ccc(C(=O)O)cc2[nH]1
inactive

Write down the call the test reported for this molecule. Item: COC(=O)c1sccc1NN=C(C)c1ccc(NC(=O)C(Cl)Cl)cc1
inactive

Write down the call the test reported for this molecule. Item: CO[C@H]1/C=C/O[C@@]2(C)Oc3c(C)c(O)c4c(O)c(c(C=NN5CCN(C)CC5)c(O)c4c3C2=O)NC(=O)/C(C)=C\C=C\[C@H](C)[C@H](O)[C@@H](C)[C@@H](O)[C@@H](C)[C@H](OC(C)=O)[C@@H]1C
inactive

Write down the call the test reported for this molecule. Item: CCCCCN=C(N)NN=Cc1c[nH]c2ccc(OC)cc12
active

Write down the call the test reported for this molecule. Item: Cn1ncc2ccccc2c1=O
inactive

Write down the call the test reported for this molecule. Item: Cc1noc(C=Cc2sccc2C2OCCO2)c1[N+](=O)[O-]
inactive

Write down the call the test reported for this molecule. Item: C=CC[C@@H]1C=C(C)C[C@H](C)C[C@H](OC)[C@H]2O[C@@](O)(C(=O)C(=O)N3CCCC[C@H]3C(=O)O[C@H](/C(C)=C/[C@@H]3CC[C@@H](O)[C@H](OC)C3)[C@H](C)[C@@H](O)CC1=O)[C@H](C)C[C@@H]2OC
inactive

Write down the call the test reported for this molecule. Item: O=C1c2cccc3c(Sc4ccccc4)ccc(c23)C(=O)N1CCc1ccccn1
inactive
